System: methicillin-sensitive Staphylococcus aureus (MSSA)
Test: MIC, two-fold agar dilution (CLSI), clinical isolates
Type: cell-based
Conditions: clinical isolate MSSA 15-5
Rule: t for Anti-bacterial activity (MIC), strain MSSA 15-5 not less than 0.1 µg/mL, f for anything less.

Tell me whether Anti-bacterial activity (MIC), strain MSSA 15-5 is at least 0.1 µg/mL here: O=C(C[C@@H](CC1CCCC1)C(=O)N1CC2(CC2)C[C@H]1C(=O)Nc1nccs1)NO [Example 72]
f

Would you say CCCC[C@H](CC(=O)NO)C(=O)N1CC2(CC2)C[C@H]1C(=O)Nc1cc(C(C)(C)C)on1 [Example 55] shows Anti-bacterial activity (MIC), strain MSSA 15-5 at minimum 0.1 µg/mL?
t

Evaluate CCCC[C@H](CC(=O)NO)C(=O)N1CC2(CC2)C[C@H]1C(=O)NC1CC1 [Example 50] : Anti-bacterial activity (MIC), strain MSSA 15-5 at minimum 0.1 µg/mL?
t

Answer whether Anti-bacterial activity (MIC), strain MSSA 15-5 of CCCC[C@H](CC(=O)NO)C(=O)N1CC2(CC2)C[C@H]1c1nc2ccccc2[nH]1 [Example 58] is greater than or equal to 0.1 µg/mL.
t

Record O=C(C[C@@H](CC1CCCC1)C(=O)N1CC2(CC2)C[C@H]1C(=O)Nc1ccc(F)cn1)NO [Example 64] ; criterion: Anti-bacterial activity (MIC), strain MSSA 15-5 no lower than 0.1 µg/mL. Met?
f

Given CCCC[C@H](CC(=O)NO)C(=O)N1CC2(CC2)C[C@H]1C(=O)Nc1ccc(N2CCOCC2)cc1 [Example 43] , state whether its Anti-bacterial activity (MIC), strain MSSA 15-5 is at least 0.1 µg/mL.
t

Identify whether the reported Anti-bacterial activity (MIC), strain MSSA 15-5 of the following compound is 0.1 µg/mL or greater: CCCC[C@H](CC(=O)NO)C(=O)N1CC2(CC2)C[C@H]1C(=O)Nc1ccno1 [Example 54]
t

Quick check: does CCCC[C@H](CC(=O)NO)C(=O)N1CC2(CC2)C[C@H]1C(=O)Nc1nc(C)cs1 [Example 51] have Anti-bacterial activity (MIC), strain MSSA 15-5 greater than or equal to 0.1 µg/mL?
f

Confirm if Anti-bacterial activity (MIC), strain MSSA 15-5 reported for the compound O=C(C[C@@H](CC1CCCC1)C(=O)N1CC2(CC2)C[C@H]1C(=O)Nc1ccncn1)NO [Example 63] is 0.1 µg/mL or above.
t

hey, is Anti-bacterial activity (MIC), strain MSSA 15-5 for this one >= 0.1 µg/mL? O=CN(O)C[C@@H](CC1CCCC1)C(=O)N1CC2(CC2)C[C@H]1c1nc2ccccc2[nH]1 [Example 42]
t

Form field: Anti-bacterial activity (MIC), strain MSSA 15-5 at least 0.1 µg/mL? Entry: Cc1cc(NC(=O)[C@@H]2CC3(CC3)CN2C(=O)[C@@H](CC(=O)NO)CC2CCCC2)no1 [Example 71]
f

Textbook exercise: given the entry CCCC[C@H](CC(=O)NO)C(=O)N1CC2(CCCC2)C[C@H]1C(=O)Nc1cnccn1 [Example 77] , state whether its Anti-bacterial activity (MIC), strain MSSA 15-5 is greater than or equal to 0.1 µg/mL.
t

Decide: Anti-bacterial activity (MIC), strain MSSA 15-5 of O=C(C[C@@H](CC1CCCC1)C(=O)N1CC2(CC2)C[C@H]1C(=O)Nc1ncccc1F)NO [Example 67] >= 0.1 µg/mL?
t

Item CCCC[C@H](CC(=O)NO)C(=O)N1CC2(CC2)C[C@@H]1c1nc2ccccc2[nH]1 [Example 59] with Anti-bacterial activity (MIC), strain MSSA 15-5 of 0.1 µg/mL or above?
t

Does O=C(C[C@@H](CC1CCCC1)C(=O)N1CC2(CC2)C[C@H]1c1nc2ccccc2[nH]1)NO [Example 75] have a reported Anti-bacterial activity (MIC), strain MSSA 15-5 of at least 0.1 µg/mL?
t

Textbook exercise: given the entry O=C(C[C@@H](CC1CCCC1)C(=O)N1CC2(CC2)C[C@@H]1c1nc2ccccc2[nH]1)NO [Example 76] , state whether its Anti-bacterial activity (MIC), strain MSSA 15-5 is greater than or equal to 0.1 µg/mL.
t
